# targetSystem: Nuclear receptor subfamily 1 group I member 2 (Homo sapiens, UniProt O75469)
# method: Agonist activity at human PXR
quantityMeasured: EC50

[
  {
    "molecule": "Cn1c(-c2ccc(-c3ccccc3)cc2Cl)nnc1C1(c2ccc(Cl)cc2)CCC1",
    "quantityMeasured": "EC50",
    "observedValue": "1700 nM"
  },
  {
    "molecule": "Cn1c(-c2ccc(-n3ccnc3C(F)(F)F)cc2Cl)nnc1C1(c2ccc(Cl)cc2)CCC1",
    "quantityMeasured": "EC50",
    "observedValue": "3200 nM"
  },
  {
    "molecule": "Cc1cn(-c2ccc(-c3nnc(C4(c5ccc(Cl)cc5)CCC4)n3C)c(Cl)c2)c(C2CC2)n1",
    "quantityMeasured": "EC50",
    "observedValue": "1300 nM"
  },
  {
    "molecule": "CCSc1ccccc1-c1ccc(-c2nnc(C3(c4ccc(Cl)cc4)CCC3)n2C)c(Cl)c1",
    "quantityMeasured": "EC50",
    "observedValue": "1700 nM"
  },
  {
    "molecule": "Cn1c(-c2ccc(-c3ccncc3)cc2Cl)nnc1C1(c2ccc(Cl)cc2)CCC1",
    "quantityMeasured": "EC50",
    "observedValue": "7700 nM"
  },
  {
    "molecule": "Cn1c(-c2ccc(-c3cccnc3)cc2Cl)nnc1C1(c2ccc(Cl)cc2)CCC1",
    "quantityMeasured": "EC50",
    "observedValue": "3600 nM"
  }
]

---

# targetSystem: 11-beta-hydroxysteroid dehydrogenase 1 (Mus musculus)
# Sequence (P50172 whole entry): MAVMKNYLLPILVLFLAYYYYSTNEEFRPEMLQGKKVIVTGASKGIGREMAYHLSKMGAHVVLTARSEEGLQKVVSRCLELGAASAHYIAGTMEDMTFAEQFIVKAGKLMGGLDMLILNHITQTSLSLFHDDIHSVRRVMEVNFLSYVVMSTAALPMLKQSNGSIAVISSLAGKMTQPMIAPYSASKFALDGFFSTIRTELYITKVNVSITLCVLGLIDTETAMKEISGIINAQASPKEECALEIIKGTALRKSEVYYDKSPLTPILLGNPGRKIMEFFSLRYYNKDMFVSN
pIC50: −log10 of the molar value.

[
  {
    "molecule": "Cn1c(-c2ccc(O)cc2)nnc1C1(c2ccc(Cl)cc2)CCC1",
    "pIC50": 7.72
  },
  {
    "molecule": "Cn1c(-c2cccc(F)c2)nnc1C1(c2ccc(Cl)cc2)CCC1",
    "pIC50": 6.79
  },
  {
    "molecule": "Cn1c(-c2ccc(Oc3ccccc3)cc2)nnc1C1(c2ccc(Cl)cc2)CCC1",
    "pIC50": 8.43
  },
  {
    "molecule": "COc1ccc(-c2nnc(C3(c4ccc(Cl)cc4)CCC3)n2C)cc1F",
    "pIC50": 7.38
  },
  {
    "molecule": "Cn1c(-c2ccc(-n3ccnc3)cc2)nnc1C1(c2ccc(Cl)cc2)CCC1",
    "pIC50": 7.34
  },
  {
    "molecule": "Cn1c(-c2ccc(-n3ccnc3)cc2Cl)nnc1C1(c2ccc(Cl)cc2)CCC1",
    "pIC50": 8.55
  },
  {
    "molecule": "Cn1c(-c2cccc(OC(F)(F)F)c2)nnc1C1(c2ccc(Cl)cc2)CCC1",
    "pIC50": 7.44
  },
  {
    "molecule": "Cn1c(-c2ccccc2F)nnc1C1(c2ccc(Cl)cc2)CCC1",
    "pIC50": 7.68
  },
  {
    "molecule": "Cn1c(-c2ccc(O)c(F)c2)nnc1C1(c2ccc(Cl)cc2)CCC1",
    "pIC50": 7.21
  },
  {
    "molecule": "Cn1c(-c2ccc(Cl)cc2)nnc1C1(c2ccc(Cl)cc2)CCC1",
    "pIC50": 7.37
  },
  {
    "molecule": "CCSc1ccccc1-c1ccc(-c2nnc(C3(c4ccc(Cl)cc4)CCC3)n2C)c(Cl)c1",
    "pIC50": 8.33
  },
  {
    "molecule": "Cn1c(-c2ccc(-n3ccnc3S(C)(=O)=O)cc2Cl)nnc1C1(c2ccc(Cl)cc2)CCC1",
    "pIC50": 8.03
  }
]

---

Overview of reported pIC50 across a group of compounds:
# targetSystem: UniProt:P51661
# Sequence (P51661 whole entry): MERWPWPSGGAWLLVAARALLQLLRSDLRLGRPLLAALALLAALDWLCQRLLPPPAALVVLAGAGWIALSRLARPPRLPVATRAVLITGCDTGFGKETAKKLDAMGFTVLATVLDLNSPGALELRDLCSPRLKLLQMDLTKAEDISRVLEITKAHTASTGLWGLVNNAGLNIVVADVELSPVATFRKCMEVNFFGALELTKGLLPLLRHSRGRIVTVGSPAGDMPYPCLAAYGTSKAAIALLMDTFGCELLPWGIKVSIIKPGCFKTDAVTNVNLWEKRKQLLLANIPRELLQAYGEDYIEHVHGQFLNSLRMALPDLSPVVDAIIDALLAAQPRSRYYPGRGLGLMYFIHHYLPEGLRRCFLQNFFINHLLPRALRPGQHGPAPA
# method: Inhibition of mouse 11beta HSD2
pIC50: −log10 of the molar value.
quantityMeasured: pIC50

[
  {
    "molecule": "Cn1c(-c2ccccc2)nnc1C12CC3CC(CC(C3)C1)C2",
    "observedValue": "< 5.40"
  },
  {
    "molecule": "Cn1c(-c2ccc(-c3ccccn3)cc2Cl)nnc1C1(c2ccc(Cl)cc2)CCC1",
    "observedValue": "< 5.40"
  },
  {
    "molecule": "Cn1c(-c2ccc(-c3cccc(S(C)(=O)=O)c3)cc2Cl)nnc1C1(c2ccc(Cl)cc2)CCC1",
    "observedValue": "< 5.40"
  },
  {
    "molecule": "Cn1c(-c2ccc(Oc3ccccc3)cc2)nnc1C1(c2ccc(Cl)cc2)CCC1",
    "observedValue": "< 5.40"
  },
  {
    "molecule": "Cn1c(-c2ccc(-c3ccccc3)cc2)nnc1C1(c2ccc(Cl)cc2)CCC1",
    "observedValue": "< 5.40"
  }
]

---

# targetSystem: Nuclear receptor subfamily 1 group I member 2 (Homo sapiens)
# Sequence (O75469 whole entry): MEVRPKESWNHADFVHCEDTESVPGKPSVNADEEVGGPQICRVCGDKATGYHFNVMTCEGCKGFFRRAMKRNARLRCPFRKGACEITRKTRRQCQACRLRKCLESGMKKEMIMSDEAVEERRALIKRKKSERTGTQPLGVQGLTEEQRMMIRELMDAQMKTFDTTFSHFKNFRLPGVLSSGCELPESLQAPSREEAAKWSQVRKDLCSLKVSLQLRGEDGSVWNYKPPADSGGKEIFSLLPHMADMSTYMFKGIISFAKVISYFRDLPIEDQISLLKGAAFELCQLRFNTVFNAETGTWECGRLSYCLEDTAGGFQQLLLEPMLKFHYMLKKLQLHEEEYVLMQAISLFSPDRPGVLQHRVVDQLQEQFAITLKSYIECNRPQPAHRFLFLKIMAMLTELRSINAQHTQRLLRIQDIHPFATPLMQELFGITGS
# method: Agonist activity at human PXR
pEC50: −log10 of the molar value.
quantityMeasured: pEC50

[
  {
    "molecule": "Cn1c(-c2ccc(-c3ccc(S(C)(=O)=O)cc3)cc2Cl)nnc1C1(c2ccc(Cl)cc2)CCC1",
    "relationSymbol": "<",
    "observedValue": 4.60
  },
  {
    "molecule": "CCS(=O)(=O)c1ccccc1-c1ccc(-c2nnc(C3(c4ccc(Cl)cc4)CCC3)n2C)c(Cl)c1",
    "relationSymbol": "=",
    "observedValue": 6.15
  },
  {
    "molecule": "CCS(=O)(=O)c1cccc(-c2ccc(-c3nnc(C4(c5ccc(Cl)cc5)CCC4)n3C)c(Cl)c2)c1",
    "relationSymbol": "=",
    "observedValue": 4.60
  },
  {
    "molecule": "Cn1c(-c2ccc(-n3ccnc3S(C)(=O)=O)cc2Cl)nnc1C1(c2ccc(Cl)cc2)CCC1",
    "relationSymbol": "=",
    "observedValue": 5.10
  },
  {
    "molecule": "Cn1c(-c2ccc(-c3ccccn3)cc2Cl)nnc1C1(c2ccc(Cl)cc2)CCC1",
    "relationSymbol": "=",
    "observedValue": 5.62
  },
  {
    "molecule": "Cn1c(-c2ccc(-n3ccnc3)cc2Cl)nnc1C1(c2ccc(Cl)cc2)CCC1",
    "relationSymbol": "=",
    "observedValue": 4.92
  },
  {
    "molecule": "Cc1nccn1-c1ccc(-c2nnc(C3(c4ccc(Cl)cc4)CCC3)n2C)c(Cl)c1",
    "relationSymbol": "<",
    "observedValue": 4.60
  },
  {
    "molecule": "CCS(=O)(=O)c1ccc(-c2ccc(-c3nnc(C4(c5ccc(Cl)cc5)CCC4)n3C)c(Cl)c2)cc1",
    "relationSymbol": "<",
    "observedValue": 4.60
  },
  {
    "molecule": "Cn1c(-c2ccc(-c3cccc(S(C)(=O)=O)c3)cc2Cl)nnc1C1(c2ccc(Cl)cc2)CCC1",
    "relationSymbol": "<",
    "observedValue": 4.60
  }
]

---

Overview of reported Activity across a group of compounds:
# targetSystem: Nuclear receptor subfamily 1 group I member 2 (Homo sapiens, UniProt O75469)
# method: Agonist activity at human PXR at 10 uM
# Assay type: functional

[
  {
    "molecule": "Cn1c(-c2ccc(-c3ccccn3)cc2Cl)nnc1C1(c2ccc(Cl)cc2)CCC1",
    "Activity / %": 98
  },
  {
    "molecule": "Cn1c(-c2ccc(-c3cccc(S(C)(=O)=O)c3)cc2Cl)nnc1C1(c2ccc(Cl)cc2)CCC1",
    "Activity / %": -5
  },
  {
    "molecule": "CCS(=O)(=O)c1cccc(-c2ccc(-c3nnc(C4(c5ccc(Cl)cc5)CCC4)n3C)c(Cl)c2)c1",
    "Activity / %": -31
  },
  {
    "molecule": "Cn1c(-c2ccc(-c3ccc(S(C)(=O)=O)cc3)cc2Cl)nnc1C1(c2ccc(Cl)cc2)CCC1",
    "Activity / %": 2
  },
  {
    "molecule": "CCSc1ccccc1-c1ccc(-c2nnc(C3(c4ccc(Cl)cc4)CCC3)n2C)c(Cl)c1",
    "Activity / %": 48
  },
  {
    "molecule": "Cn1c(-c2ccc(-c3ccncc3)cc2Cl)nnc1C1(c2ccc(Cl)cc2)CCC1",
    "Activity / %": 42
  },
  {
    "molecule": "Cn1c(-c2ccc(-n3ccnc3S(C)(=O)=O)cc2Cl)nnc1C1(c2ccc(Cl)cc2)CCC1",
    "Activity / %": 23
  },
  {
    "molecule": "CCS(=O)(=O)c1ccc(-c2ccc(-c3nnc(C4(c5ccc(Cl)cc5)CCC4)n3C)c(Cl)c2)cc1",
    "Activity / %": -8
  },
  {
    "molecule": "Cn1c(-c2ccc(-c3cccnc3)cc2Cl)nnc1C1(c2ccc(Cl)cc2)CCC1",
    "Activity / %": 35
  }
]
